Each record here notes measured Kd.
Biological target: T1, EsCas13d, nuclease-dead (Eubacterium siraeum, UniProt B0MS50, R295A;H300A;R849A;H854A)
T1 sequence: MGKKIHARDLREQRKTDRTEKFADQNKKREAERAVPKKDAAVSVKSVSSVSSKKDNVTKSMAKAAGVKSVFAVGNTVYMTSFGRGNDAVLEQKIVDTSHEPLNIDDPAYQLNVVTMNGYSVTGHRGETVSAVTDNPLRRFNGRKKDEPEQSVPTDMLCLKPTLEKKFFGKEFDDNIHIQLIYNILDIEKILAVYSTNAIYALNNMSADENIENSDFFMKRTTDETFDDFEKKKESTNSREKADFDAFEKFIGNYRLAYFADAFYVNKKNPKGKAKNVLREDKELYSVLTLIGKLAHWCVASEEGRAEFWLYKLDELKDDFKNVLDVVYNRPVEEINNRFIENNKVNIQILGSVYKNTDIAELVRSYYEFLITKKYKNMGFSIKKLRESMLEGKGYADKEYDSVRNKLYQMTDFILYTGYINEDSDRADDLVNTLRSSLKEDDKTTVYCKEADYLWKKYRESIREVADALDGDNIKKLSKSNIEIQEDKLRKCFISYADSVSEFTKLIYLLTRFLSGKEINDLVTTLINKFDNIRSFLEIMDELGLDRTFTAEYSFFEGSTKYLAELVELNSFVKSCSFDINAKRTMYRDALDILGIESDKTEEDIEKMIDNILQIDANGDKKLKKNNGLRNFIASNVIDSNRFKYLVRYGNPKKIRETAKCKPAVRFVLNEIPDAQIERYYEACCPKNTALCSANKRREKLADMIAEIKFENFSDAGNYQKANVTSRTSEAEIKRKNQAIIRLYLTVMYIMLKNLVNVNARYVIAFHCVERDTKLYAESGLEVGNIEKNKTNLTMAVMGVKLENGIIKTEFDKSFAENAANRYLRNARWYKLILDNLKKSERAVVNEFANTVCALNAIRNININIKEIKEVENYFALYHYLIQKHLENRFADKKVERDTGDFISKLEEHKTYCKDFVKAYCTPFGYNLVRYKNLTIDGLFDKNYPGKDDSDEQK
Experiment: crRNA (strand 1, pre-loaded); Mg2+; 40 mM Tris-HCl pH 7.5, 150 mM NaCl, 6 mM MgCl2, 1 mM DTT, 0.1% Tween-20, 0.2 mg/ml BSA; 25 C; 10 min per concentration, then washed
Conditions: tags: His6-TwinStrep-SUMO cleaved; N-terminal SNAP kept (SNAP-Surface 488); label: 3' end held by stalled T7 RNA polymerase
The figure you give is taken to be in nM; do not add the unit.

binder	Kd [nM]
target 2 MT 5'PFS CGC 3'PFS UGU (mixed) RNA 1: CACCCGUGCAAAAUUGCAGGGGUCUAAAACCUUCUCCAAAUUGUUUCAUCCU RNA 2: GGGAAUGGAUCCACAUCUACGAAUUCCGCAGGAUGAAACAAUUUGGAGAAGUGUAGAUCGGAAGAGCACACGU	5.6

We now examine a further binder.
Entry target 1 MT 5'PFS GGA 3'PFS UUU (mixed) RNA 1: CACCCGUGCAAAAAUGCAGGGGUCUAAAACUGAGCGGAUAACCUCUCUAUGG RNA 2: GGGAAUGGAUCCACAUCUACGAAUUCGGACCAUAGAGAGGUUAUCCGCUCAUUUAGAUCGGAAGAGCACACGU has what Kd?
13.4
